test system: NCI-H522; assay: NCI tumour cell line growth inhibition, 48 h
The source made the active and inactive calls. Rule as the data show it: active = GI50 up to about 1.1 µM and inactive = higher.
A correct response names exactly one class from t for active, f for inactive

CN(C)c1cccc(/C=C(\C#N)c2ccccc2)c1	t
Nc1ncnc2c1nc(Cl)n2[C@@H]1O[C@@H]2COP(=O)(O)O[C@H]2[C@H]1O [TOCLADESINE]	f
COc1ccc(C(c2ccc(C(C)C)cc(=O)c2O)c2ccc3cccnc3c2O)cc1 (stereo not given)	f

Prompt: Could you kindly confirm the outcome this assay logged for CC(C)CCCC(C)[C@H]1CCC(C2C[C@@H](O)[C@@H]3CC(O)[C@@H](O)C[C@]3(CO)C2=O)[C@]1(C)CCO (stereo not given in full) ?
Completion: f

Prompt: Could you kindly confirm the outcome this assay logged for Clc1ccc(OCc2nnc3sc(-c4ccc(-c5ccc(Cl)cc5Cl)o4)nn23)c(Cl)c1 ?
Completion: f

Prompt: Could you kindly confirm the outcome this assay logged for C/C(=N\NC(=O)CC(=O)Nc1ccc(Cl)cc1)c1cc2ccccc2oc1=O ?
Completion: f

Prompt: Could you kindly confirm the outcome this assay logged for CCOC(=O)C1(C#N)C(c2ccccc2)CC(O)(c2ccc(Cl)cc2)C(C(=O)c2ccc(Cl)cc2)C1c1ccccc1 (stereo not given) ?
Completion: f

Prompt: Could you kindly confirm the outcome this assay logged for CCOC(=O)C1S/C(=N\c2ccc(Cl)cc2Cl)N=C1C (stereo not given) ?
Completion: f

Prompt: Could you kindly confirm the outcome this assay logged for N=C(N)NS(=O)(=O)c1ccc(NCc2c3ccccc3nc3ccccc23)cc1 ?
Completion: f

Prompt: Could you kindly confirm the outcome this assay logged for CC1(C)CC(=O)c2c(nc3c4c([nH]c(-c5ccc([N+](=O)[O-])cc5)c24)CC(C)(C)C3)C1 ?
Completion: f

Prompt: Could you kindly confirm the outcome this assay logged for C/C(=C\CO)CC/C=C(\C)CNc1ccc([N+](=O)[O-])cc1 ?
Completion: f

Prompt: Could you kindly confirm the outcome this assay logged for Cc1ccc(C(=O)C2C=C(c3ccc(C)cc3)SC3C=CCC32)cc1 (stereo not given) ?
Completion: f

Prompt: Could you kindly confirm the outcome this assay logged for CCOP(=O)(OCC)C(Nc1ccc(C(=O)O)cc1)c1ccc(C(Nc2ccc(C(=O)O)cc2)P(=O)(OCC)OCC)cc1 (stereo not given) ?
Completion: f

Prompt: Could you kindly confirm the outcome this assay logged for O=C(CCc1cccc(O)c1)NCCCNC(=O)CCc1cccc(O)c1 ?
Completion: f
